Source: the supplement of paper PMC10567573

B1: SMARCE1 (parent)
chain: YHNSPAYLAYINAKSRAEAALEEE

# Variants of: B1
# Assay Method Text: protein stability index of a GFP-peptide fusion (GPS, HEK-293T) (PSI 1-6); higher = more stable;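 further: lentivirally expressed fusions sorted by FACS into six bins by GFP to DsRed ratio, PSI derived from sequencing read proportions per bin multiplied by bin number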
# Recorded Conditions: c terminus: a fixed tail appended
Reported Endpoint: protein stability index

{"Variant Notation": "P5M", "Value Reported": 2.65}
{"Variant Notation": "L21R", "Value Reported": 2.1}
{"Variant Notation": "A9C", "Value Reported": 1.77}
{"Variant Notation": "S4C", "Value Reported": 1.56}
{"Variant Notation": "H2E", "Value Reported": 4.87}
{"Variant Notation": "S4N", "Value Reported": 2.23}
{"Variant Notation": "H2T", "Value Reported": 1.7}
{"Variant Notation": "E18C", "Value Reported": 2.46}
{"Variant Notation": "N12K", "Value Reported": 2.41}
{"Variant Notation": "E22T", "Value Reported": 2.36}
{"Variant Notation": "S4Y", "Value Reported": 2.09}
{"Variant Notation": "K14L", "Value Reported": 1.9}
{"Variant Notation": "K14M", "Value Reported": 1.57}
{"Variant Notation": "R16N", "Value Reported": 1.35}
{"Variant Notation": "N3I", "Value Reported": 2.08}
{"Variant Notation": "A20Y", "Value Reported": 3.29}
{"Variant Notation": "H2W", "Value Reported": 2.66}
{"Variant Notation": "E22S", "Value Reported": 2.41}
{"Variant Notation": "N12C", "Value Reported": 2.02}
{"Variant Notation": "E24H", "Value Reported": 1.91}
{"Variant Notation": "A19D", "Value Reported": 2.33}
{"Variant Notation": "S15D", "Value Reported": 2.06}
{"Variant Notation": "A17K", "Value Reported": 1.53}
{"Variant Notation": "E23L", "Value Reported": 1.59}
{"Variant Notation": "A20R", "Value Reported": 2.89}
{"Variant Notation": "E23F", "Value Reported": 2.31}
{"Variant Notation": "I11G", "Value Reported": 1.87}
{"Variant Notation": "H2F", "Value Reported": 2.79}
{"Variant Notation": "I11D", "Value Reported": 3.19}
{"Variant Notation": "N12W", "Value Reported": 2.09}
{"Variant Notation": "P5L", "Value Reported": 2.92}
{"Variant Notation": "A6V", "Value Reported": 2.02}
{"Variant Notation": "I11N", "Value Reported": 2.59}
{"Variant Notation": "N12A", "Value Reported": 1.77}
{"Variant Notation": "Y7Q", "Value Reported": 2.77}
{"Variant Notation": "E24K", "Value Reported": 2.91}
{"Variant Notation": "H2S", "Value Reported": 2.5}
{"Variant Notation": "I11P", "Value Reported": 3.06}
